assay: Rat liver microsome stability assay; type: in vitro ADME; conditions: rat liver microsomes; read-out: RLM Stability (t1/2)

- COMPOUND: "CCOC(=O)CN(Cc1cccs1)C(=O)[C@H](NS(=O)(=O)c1cc2ccc(=O)[nH]c2cc1Cl)c1ccccc1OC [drawing 86]"
  UNIT_OF_MEASURE: "min"
  half-life: 1.9
- COMPOUND: "CCOC(=O)CN(Cc1cccs1)C(=O)[C@H](NS(=O)(=O)c1cc2ccc(=O)[nH]c2cc1C)c1ccccc1OC"
  UNIT_OF_MEASURE: "min"
  half-life: 1.3

---

target: UniProt:O15294
pIC50: −log10 of the molar value.

- ENTRY_SMILES: "CCOC(=O)CN(Cc1cccs1)C(=O)[C@H](NS(=O)(=O)c1cc2ccc(=O)[nH]c2cc1C)c1ccccc1OC"
  pIC50: 5.74

---

assay: PAMPA assay; assay type: in vitro ADME; conditions: read-out: Permeability
Recorded Papp values for a group of compounds are listed next.

- COMPOUND: "CCOC(=O)CN(Cc1cccs1)C(=O)[C@H](NS(=O)(=O)c1cc2ccc(=O)[nH]c2cc1Cl)c1ccccc1OC [drawing 86]"
  Papp (nm/s): 5400
- COMPOUND: "CCOC(=O)CN(Cc1cccs1)C(=O)[C@H](NS(=O)(=O)c1cc2ccc(=O)[nH]c2cc1C)c1ccccc1OC"
  Papp (nm/s): 5110

---

target: full length OGT (Homo sapiens)
Sequence (O15294 whole entry): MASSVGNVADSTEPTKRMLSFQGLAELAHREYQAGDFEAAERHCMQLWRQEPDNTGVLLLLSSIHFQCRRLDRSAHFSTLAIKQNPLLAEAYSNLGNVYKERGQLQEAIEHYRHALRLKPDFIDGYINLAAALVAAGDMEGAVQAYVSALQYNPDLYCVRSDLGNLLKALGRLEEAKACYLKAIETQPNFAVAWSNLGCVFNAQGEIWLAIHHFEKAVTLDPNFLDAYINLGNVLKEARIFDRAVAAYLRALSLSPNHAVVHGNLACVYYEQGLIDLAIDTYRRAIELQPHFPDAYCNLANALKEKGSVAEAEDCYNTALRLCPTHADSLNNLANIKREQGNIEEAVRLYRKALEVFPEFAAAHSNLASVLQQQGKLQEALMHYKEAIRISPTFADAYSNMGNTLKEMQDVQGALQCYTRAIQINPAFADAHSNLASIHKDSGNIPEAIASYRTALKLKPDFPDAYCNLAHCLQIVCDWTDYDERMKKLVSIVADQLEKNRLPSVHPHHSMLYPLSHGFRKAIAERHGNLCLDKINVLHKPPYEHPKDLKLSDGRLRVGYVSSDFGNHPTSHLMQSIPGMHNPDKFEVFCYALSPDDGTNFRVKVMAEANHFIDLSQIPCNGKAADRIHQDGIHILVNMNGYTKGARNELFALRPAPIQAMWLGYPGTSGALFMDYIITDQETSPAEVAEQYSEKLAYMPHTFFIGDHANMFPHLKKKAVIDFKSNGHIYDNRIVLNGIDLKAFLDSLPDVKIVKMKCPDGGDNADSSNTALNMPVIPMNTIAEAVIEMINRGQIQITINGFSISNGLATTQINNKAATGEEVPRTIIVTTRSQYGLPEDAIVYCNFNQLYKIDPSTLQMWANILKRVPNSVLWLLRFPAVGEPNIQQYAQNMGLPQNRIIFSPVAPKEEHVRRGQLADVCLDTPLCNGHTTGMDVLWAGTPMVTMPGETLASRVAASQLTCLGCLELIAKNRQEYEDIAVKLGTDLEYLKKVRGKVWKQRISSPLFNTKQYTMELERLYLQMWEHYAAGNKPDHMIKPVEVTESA
EXPERIMENTAL_ENDPOINT: Kd (µM)

- COMPOUND: "CC(=O)N[C@H]1[C@@H](OP(=O)(O)OP(=O)(O)OC[C@H]2O[C@@H](n3ccc(=O)[nH]c3=O)[C@H](O)[C@@H]2O)O[C@H](CO)[C@@H](O)[C@@H]1O [UDP-GlcNAc, reference compound]"
  UNIT_OF_MEASURE: "µM"
  NUMERIC_READOUT: 16

---

target: ncOGT (Homo sapiens, UniProt O15294)
Sequence (O15294 whole entry): as above
pKi: −log10 of the molar value.
EXPERIMENTAL_ENDPOINT: pKi

- ENTRY_SMILES: "CCOC(=O)CN(Cc1cccs1)C(=O)[C@H](NS(=O)(=O)c1cc2ccc(=O)[nH]c2cc1C)c1ccccc1OC"
  TEST_SYSTEM: "ncOGT (Homo sapiens, UniProt O15294)"
  NUMERIC_READOUT: 6.99

Source listed as patent US12582644B2.
